Reported pEC50 is given for each of the following molecules.
- Test system: Human immunodeficiency virus 1
- experimental protocol: Antiviral activity against HIV-1 harboring RT K103N mutant infected in human MT4 cells assessed as protection against virus-induced cytopathic effect measured after 5 days by MTT assay
- Format: functional, organism-based
- measurement setup: Human immunodeficiency virus 1, MT4, 120 h
pEC50: −log10 of the molar value.
measurement kind: pEC50

molecule=Cc1cc(C#N)cc(C)c1Oc1nc(Nc2ccc(-c3cn(-c4ccc(C(N)=O)cc4)nn3)cc2)nc2ccsc12 tested_on="Human immunodeficiency virus 1" measured=6.60
molecule=Cc1cc(C#N)cc(C)c1Oc1nc(Nc2ccc(-c3cn(Cc4ccc(C(F)(F)F)cc4F)nn3)cc2)nc2ccsc12 tested_on="Human immunodeficiency virus 1" measured=5.88
molecule="Cc1cn([C@H]2C[C@H](N=[N+]=[N-])[C@@H](CO)O2)c(=O)[nH]c1=O [ZIDOVUDINE]" tested_on="Human immunodeficiency virus 1" measured=7.52
molecule=COC(=O)c1cccc(-n2cc(-c3ccc(Nc4nc(Oc5c(C)cc(C#N)cc5C)c5sccc5n4)cc3)nn2)c1 tested_on="Human immunodeficiency virus 1" measured=5.76

// provenance: ChEMBL document CHEMBL5329212
